experimental.target: human melanin concentrating hormone receptor (MCHR1) (Homo sapiens, UniProt Q99705, A5T/E4Q)
Sequence (Q99705 whole entry E4Q/A5T): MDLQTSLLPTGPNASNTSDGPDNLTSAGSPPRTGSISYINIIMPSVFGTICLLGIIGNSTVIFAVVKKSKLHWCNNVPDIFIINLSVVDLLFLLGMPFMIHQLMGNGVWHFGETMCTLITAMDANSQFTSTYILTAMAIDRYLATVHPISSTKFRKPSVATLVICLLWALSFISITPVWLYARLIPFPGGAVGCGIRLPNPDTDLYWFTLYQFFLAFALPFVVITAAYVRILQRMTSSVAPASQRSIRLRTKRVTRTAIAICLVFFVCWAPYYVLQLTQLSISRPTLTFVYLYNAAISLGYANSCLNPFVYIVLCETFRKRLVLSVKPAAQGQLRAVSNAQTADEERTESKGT
assay.procedure: Radioligand binding assay for assessment of MCHR1 activity
run.conditions: membranes of HEK-293 cells expressing mutated hMCHR1; competition with [125I]-MCH
pKi: −log10 of the molar value.
Mark FALSE for pKi values under 7, and TRUE for everything at or above.

# molecule, class
records = [
    ("Cc1cc(-n2ccnc(OCCc3cccc(Cl)c3)c2=O)ccc1OCC(C)(C)O [Example 155]", "TRUE"),
    ("CCc1cc(-n2ccnc(SCCc3ccc(F)cc3)c2=O)ccc1OCC(C)(C)O [Example 125]", "TRUE"),
    ("Cc1cc(-n2ccnc(SCCc3ccccn3)c2=O)ccc1OCC(C)(C)O [Example 110]", "TRUE"),
    ("Cc1cc(=O)n(CC(C)(C)O)c2ccc(-n3ccnc(Sc4ccc(OC(F)(F)F)cc4)c3=O)cc12 [Example 178]", "FALSE"),
    ("COc1cccc(Sc2nccn(-c3ccc(OCC(C)(C)O)c(OC)c3)c2=O)c1 [Example 39]", "FALSE"),
    ("COc1cc(-n2ccnc(Sc3ccc(OC(F)(F)F)cc3)c2=O)ccc1OCC(C)(C)O [Example 38]", "TRUE"),
    ("COc1cc(-n2ccnc(Sc3ccc(C(F)(F)F)cc3)c2=O)ccc1OCC(C)(C)O [Example 36]", "TRUE"),
    ("CC(C)(O)COc1ncc(-n2ccnc(SCCc3ccccn3)c2=O)cc1Cl [Example 169]", "FALSE"),
    ("COc1cc(-n2ccnc(SCCc3ccncc3)c2=O)ccc1OCC(C)(C)O [Example 28]", "FALSE"),
    ("COc1cc(-n2ccnc(SC(C)Cc3ccccc3)c2=O)ccc1OCC(C)(C)O (stereo not shown) [Example 46]", "FALSE"),
    ("COc1cc(-n2ccnc(Sc3ccccc3C(F)(F)F)c2=O)ccc1OCC(C)(C)O [Example 40]", "FALSE"),
    ("CC(C)(O)COc1ccc(-n2ccnc(Sc3ccc(C(F)(F)F)cc3)c2=O)cn1 [Example 157]", "FALSE"),
    ("COc1ccc(-n2ccnc(SCCc3ccc(Cl)cc3)c2=O)cc1OC [Example 3]", "FALSE"),
    ("COc1cc(-n2ccnc(Sc3ccc(OC(F)(F)F)cc3)c2=O)ccc1OCC(O)C1CC1 (stereo not shown) [Example 67]", "TRUE"),
    ("Cc1cc(-n2ccnc(SCCc3ccccc3)c2=O)ccc1OCC(C)(C)O [Example 113]", "TRUE"),
    ("COc1cc(-n2ccnc(SCc3ccccc3)c2=O)ccc1OCC(C)(C)O [Example 50]", "FALSE"),
    ("COc1cc(-n2ccnc(Sc3ccc(C(F)(F)F)cc3)c2=O)ccc1O[C@H]1COC[C@H]1O [Example 69]", "TRUE"),
    ("COc1cc(-n2ccnc(SCCCc3ccccc3)c2=O)ccc1OC[C@@H](C)O [Example 19]", "FALSE"),
    ("CCc1cc(-n2ccnc(SCCc3ccccc3)c2=O)ccc1OCC(C)(C)O [Example 65]", "TRUE"),
    ("COc1cc(-n2ccnc(Sc3ccccc3)c2=O)ccc1OCC(C)(C)O [Example 49]", "FALSE"),
    ("Cc1cc(-n2ccnc(SCCc3ccc(F)cc3)c2=O)ccc1OCC(C)(C)O [Example 124]", "TRUE"),
    ("Cc1cc(-n2ccnc(Sc3ccc(C(F)(F)F)cn3)c2=O)ccc1OCC(C)(C)O [Example 95]", "TRUE"),
    ("COc1cc(-n2ccnc(SCCc3cccc(F)c3)c2=O)ccc1OCC(C)(C)O [Example 131]", "TRUE"),
]
